Experiment: Antioxidant activity assessed as nitric oxide radical scavenging activity at 30 ug/ml after 150 mins
Assay type: functional
Calls of active or inactive are those of the source. The calls are words filed in the database; no cut-off is given here.
metric-name: Activity

Record excerpt, results attached:
smiles-code	data-value
COC(=O)c1c(Nc2ccccc2)sc(C(=O)c2ccc(C)cc2)c1C	9.35%
COC(=O)c1c(Nc2ccc(Cl)cc2)sc(C(=O)c2ccc(C)cc2)c1C	inactive
Cc1ccc(C(=O)c2sc(Nc3ccccc3)c(C(=O)O)c2C)cc1	5.13%
COC(=O)c1c(Nc2ccc(C)cc2)sc(C(=O)c2ccc(OC)cc2)c1C	inactive
COc1ccc(C(=O)c2sc(Nc3ccc(Cl)cc3)c(C(=O)O)c2C)cc1	inactive
COC(=O)c1c(Nc2ccc(C)cc2)sc(C(=O)c2ccc(C)cc2)c1C	inactive
COC(=O)c1c(Nc2ccc(F)cc2)sc(C(=O)c2ccc(C)cc2)c1C	inactive
COc1ccc(C(=O)c2sc(Nc3ccc(F)cc3)c(C(=O)O)c2C)cc1	10.5%
COc1ccc(C(=O)c2sc(Nc3ccc(C)cc3)c(C(=O)O)c2C)cc1	inactive

Please examine the following record next.
Prompt line: Requested field: Activity. Item: "COC(=O)c1c(Nc2ccc(F)cc2)sc(C(=O)c2ccc(OC)cc2)c1C"
Response line: 23.2%

---

The following compounds are shown together with reported Activity values.
Tested on: Rattus norvegicus
Test: Antiinflammatory activity in Albino rat assessed as protection against carrageenan-induced hind paw oedema at 20 mg/kg, po after 3 hrs
Type: functional
Expressed in %, but write only the number.

# count of solved cases: 4
smiles-code	metric-name	result-unit	data-value
Cc1ccc(C(=O)c2sc(Nc3ccc(Cl)cc3)c(C(=O)O)c2C)cc1	Activity	%	68
COC(=O)c1c(Nc2ccccc2)sc(C(=O)c2ccc(C)cc2)c1C	Activity	%	49
COC(=O)c1c(Nc2ccccc2)sc(C(=O)c2ccc(OC)cc2)c1C	Activity	%	70
COC(=O)c1c(Nc2ccc(Cl)cc2)sc(C(=O)c2ccc(OC)cc2)c1C	Activity	%	40

Prompt line: Given the compound "COC(=O)c1c(Nc2ccc(C)cc2)sc(/C(=N/O)c2ccc(OC)cc2)c1C" , what is its reported Activity?
Response line: 27

---

Experiment: Antioxidant activity assessed as nitric oxide radical scavenging activity at 15 ug/ml after 150 mins
Type: functional
Active and inactive are the calls of the source. The calls are words filed in the database; no cut-off is given here.
metric-name: Activity

Check out these entries, answers already filled in.
smiles-code	data-value
Cc1ccc(C(=O)c2sc(Nc3ccc(F)cc3)c(C(=O)O)c2C)cc1	inactive
COc1ccc(C(=O)c2sc(Nc3ccc(Cl)cc3)c(C(=O)O)c2C)cc1	inactive
COc1ccc(Nc2sc(C(=O)c3ccc(OC)cc3)c(C)c2C(=O)O)cc1	30.6%
Cc1ccc(Nc2sc(C(=O)c3ccc(C)cc3)c(C)c2C(=O)O)cc1	inactive
COC(=O)c1c(Nc2ccccc2)sc(C(=O)c2ccc(OC)cc2)c1C	28.6%

Prompt line: Look up Activity for this molecule: "COC(=O)c1c(Nc2ccc(F)cc2)sc(C(=O)c2ccc(OC)cc2)c1C"
Response line: 15.2%

---

System: Rattus norvegicus
Test: Antiinflammatory activity in Albino rat assessed as protection against carrageenan-induced hind paw oedema at 20 mg/kg, po after 3 hrs
Type: functional
metric-name: Activity (%)
Reply with just the number (in %).

Prompt line: Using the record for "COc1ccc(C(=O)c2sc(Nc3ccc(Cl)cc3)c(C(=O)O)c2C)cc1" , report its Activity.
Response line: 49

Prompt line: Proceed to "COc1ccc(C(=O)c2sc(Nc3ccc(C)cc3)c(C(=O)O)c2C)cc1"
Response line: 63

Prompt line: Also "COc1ccc(C(=O)c2sc(Nc3ccccc3)c(C(=O)O)c2C)cc1" , if possible.
Response line: 80

Prompt line: For "COC(=O)c1c(Nc2ccc(Cl)cc2)sc(/C(=N/O)c2ccc(OC)cc2)c1C" then?
Response line: 12

Prompt line: Here is the next compound: "Cc1ccc(C(=O)c2sc(Nc3ccc(F)cc3)c(C(=O)O)c2C)cc1"
Response line: 44

Prompt line: // same read-out, input: "Cc1ccc(Nc2sc(C(=O)c3ccc(C)cc3)c(C)c2C(=O)O)cc1"
Response line: 38

Prompt line: What about "Cc1ccc(C(=O)c2sc(Nc3ccccc3)c(C(=O)O)c2C)cc1" ?
Response line: 47

Prompt line: // next record "COc1ccc(Nc2sc(C(=O)c3ccc(OC)cc3)c(C)c2C(=O)O)cc1"
Response line: 75

Prompt line: Would you kindly repeat that for "COC(=O)c1c(Nc2ccccc2)sc(/C(=N/O)c2ccc(OC)cc2)c1C" ?
Response line: 38

Prompt line: Same question for "COC(=O)c1c(Nc2ccc(C)cc2)sc(C(=O)c2ccc(OC)cc2)c1C" please.
Response line: 63

---

Tested on: Rattus norvegicus
Assay: Antiinflammatory activity in Albino rat assessed as protection against carrageenan-induced hind paw oedema at 20 mg/kg, po after 3 hrs
Type: functional
# if measured Activity < 30%: True  # else: False

compound	study-target	assigned-class
CC(C)Cc1ccc(C(C)C(=O)O)cc1 (stereo not given) [IBUPROFEN]	Rattus norvegicus	False
COC(=O)c1c(Nc2ccc(OC)cc2)sc(C(=O)c2ccc(OC)cc2)c1C	Rattus norvegicus	False
COC(=O)c1c(Nc2ccccc2)sc(/C(=N/O)c2ccc(C)cc2)c1C	Rattus norvegicus	True
COc1ccc(C(=O)c2sc(Nc3ccc(F)cc3)c(C(=O)O)c2C)cc1	Rattus norvegicus	False

Prompt line: Please state whether Activity is below 30% for "COC(=O)c1c(Nc2ccc(F)cc2)sc(C(=O)c2ccc(C)cc2)c1C"
Response line: False

---

Experiment: Antioxidant activity assessed as nitric oxide radical scavenging activity at 30 ug/ml after 150 mins
Format: functional
Active and inactive are the calls of the source. The calls are words filed in the database; no cut-off is given here.
metric-name: Activity

A selection of reference data follows.
smiles-code	Activity
COC(=O)c1c(Nc2ccc(Cl)cc2)sc(C(=O)c2ccc(OC)cc2)c1C	inactive
COC(=O)c1c(Nc2ccccc2)sc(C(=O)c2ccc(OC)cc2)c1C	48.1%
COc1ccc(C(=O)c2sc(Nc3ccccc3)c(C(=O)O)c2C)cc1	59.5%
Cc1ccc(C(=O)c2sc(Nc3ccc(F)cc3)c(C(=O)O)c2C)cc1	inactive
Cc1ccc(Nc2sc(C(=O)c3ccc(C)cc3)c(C)c2C(=O)O)cc1	inactive

Prompt line: Would you mind telling me what Activity value was observed for "Cc1ccc(C(=O)c2sc(Nc3ccc(Cl)cc3)c(C(=O)O)c2C)cc1" ?
Response line: inactive

Prompt line: Let us now turn to "COc1ccc(Nc2sc(C(=O)c3ccc(OC)cc3)c(C)c2C(=O)O)cc1"
Response line: 41.2%

Prompt line: Again, but for "COC(=O)c1c(Nc2ccc(OC)cc2)sc(C(=O)c2ccc(OC)cc2)c1C"
Response line: 20.5%

---

Test system: Rattus norvegicus
Assay: Antiinflammatory activity in Albino rat assessed as protection against carrageenan-induced hind paw oedema at 20 mg/kg, po after 3 hrs
Type: functional
metric-name: Activity (%)
# output: bare number, implied unit %

Worked set:
smiles-code	study-target	result-unit	data-value
COC(=O)c1c(Nc2ccc(F)cc2)sc(C(=O)c2ccc(OC)cc2)c1C	Rattus norvegicus	%	53
COC(=O)c1c(Nc2ccc(Cl)cc2)sc(/C(=N\O)c2ccc(C)cc2)c1C	Rattus norvegicus	%	29
COC(=O)c1c(Nc2ccc(Cl)cc2)sc(C(=O)c2ccc(C)cc2)c1C	Rattus norvegicus	%	66
COC(=O)c1c(Nc2ccc(F)cc2)sc(/C(=N/O)c2ccc(OC)cc2)c1C	Rattus norvegicus	%	25

// moving on: another record for Activity
Prompt line: Requested field: Activity. Item: "COC(=O)c1c(Nc2ccc(C)cc2)sc(C(=O)c2ccc(C)cc2)c1C"
Response line: 36

---

Test: Antioxidant activity assessed as nitric oxide radical scavenging activity at 15 ug/ml after 150 mins
Assay type: functional
Calls of active or inactive are those of the source. The rule behind the calls is not given here.
metric-name: Activity

Some entries whose results are on file:
smiles-code	Activity
COC(=O)c1c(Nc2ccc(C)cc2)sc(C(=O)c2ccc(OC)cc2)c1C	inactive
Cc1ccc(C(=O)c2sc(Nc3ccc(Cl)cc3)c(C(=O)O)c2C)cc1	inactive
Cc1ccc(C(=O)c2sc(Nc3ccccc3)c(C(=O)O)c2C)cc1	1.25%
COC(=O)c1c(Nc2ccccc2)sc(C(=O)c2ccc(C)cc2)c1C	4.59%
COc1ccc(C(=O)c2sc(Nc3ccc(F)cc3)c(C(=O)O)c2C)cc1	1.98%

Now consider the entry below.
Prompt line: May I ask what Activity has been recorded for "COc1ccc(C(=O)c2sc(Nc3ccccc3)c(C(=O)O)c2C)cc1" ?
Response line: 36.5%

---

Test: Antioxidant activity assessed as nitric oxide radical scavenging activity at 15 ug/ml after 150 mins
Type: functional
Calls of active or inactive are those of the source. The rule behind the calls is not given here.
metric-name: Activity

Examples with answers:
smiles-code	Activity
COc1ccc(C(=O)c2sc(Nc3ccc(C)cc3)c(C(=O)O)c2C)cc1	inactive
COC(=O)c1c(Nc2ccc(Cl)cc2)sc(C(=O)c2ccc(OC)cc2)c1C	inactive
COC(=O)c1c(Nc2ccc(OC)cc2)sc(C(=O)c2ccc(OC)cc2)c1C	7.8%
COC(=O)c1c(Nc2ccc(C)cc2)sc(C(=O)c2ccc(C)cc2)c1C	inactive
COC(=O)c1c(Nc2ccc(Cl)cc2)sc(C(=O)c2ccc(C)cc2)c1C	inactive

Prompt line: Quick check: Activity of "COC(=O)c1c(Nc2ccc(F)cc2)sc(C(=O)c2ccc(C)cc2)c1C" ?
Response line: inactive
